# EXPERIMENT_DESCRIPTION: Drug level in Sprague-Dawley rat brain at 100 mg/kg, po after 6 hrs
# Format: ADME, organism-based
# TEST_PARAMETERS: read-out: Drug uptake
RESULT_TYPE: concentration at 6 h (µM)
Answers are plain numbers, in µM.

Query: Using the record for COc1cc(-c2cn(C3CCc4c(F)cccc4N(CC(F)(F)F)C3=O)nn2)ccc1-n1cnc(C)c1 (stereo unspecified) , state its measured concentration at 6 h.
Response: 35

----------
# SYSTEM_UNDER_TEST: Gamma-secretase
# EXPERIMENT_DESCRIPTION: Inhibition of gamma-secretase in human SH-SY5Y cells expressing beta-APP C-terminal fragment SPA4CT assessed as decrease of amyloid beta-42 level by electrochemiluminescent method
# Assay type: cell-based
Please provide measured IC50 for the entries that follow.
Numbers only, in nM.

COMPOUND	RESULT_TYPE	NUMERIC_READOUT
COc1cc(-c2cn(C3CCc4cc(F)ccc4N(CC(F)(F)F)C3=O)nn2)ccc1-n1cnc(C)c1 (centres undefined)	IC50	40
COc1cc(-c2cn(C3CCc4ccccc4N(Cc4ccncc4)C3=O)nn2)ccc1-n1cnc(C)c1 (racemic)	IC50	1190
COc1cc(-c2cn(C3CCc4ccccc4N(CC(F)(F)F)C3=O)nn2)ccc1-n1cnc(C)c1 (centres undefined)	IC50	70
COc1cc(-c2cn(C3CCc4ccccc4N(Cc4cccnc4)C3=O)nn2)ccc1-n1cnc(C)c1 (racemic)	IC50	880
COc1cc(-c2cn(C3CCc4ccccc4N(CC4CC4)C3=O)nn2)ccc1-n1cnc(C)c1 (centres undefined)	IC50	370
COc1cc(-c2cn(C3CCc4ncccc4N(CC(F)(F)F)C3=O)nn2)ccc1-n1cnc(C)c1 (centres undefined)	IC50	150
COc1cc(-c2cn(C3CCc4ccccc4N(CC(F)F)C3=O)nn2)ccc1-n1cnc(C)c1 (centres undefined)	IC50	150
COc1cc(-c2cn(C3CCc4ccccc4N(CC4(C)COC4)C3=O)nn2)ccc1-n1cnc(C)c1 (racemic)	IC50	1250

Then this compound:
Query: Using the record for COc1cc(-c2cn(C3CCc4ccccc4N(Cc4ccccc4)C3=O)nn2)ccc1-n1cnc(C)c1 (racemic) , state its measured IC50.
Response: 240
